Please find below Ki measurements for Melanocortin receptor 4 (Homo sapiens, UniProt P32245), combined from several publications.
Report as a plain number; the unit nM is understood.

Take a look at these entries with their results.
>>> numericresult("O=C([C@H]1CN(C2CCOCC2)C[C@@H]1c1ccc(Cl)cc1)N1CCN(C2(CNCc3ccccc3)CCCCC2)CC1")
29
>>> numericresult("CC(=O)N[C@@H](Cc1ccc(O)cc1)C(=O)N[C@H](Cc1ccccc1)C(=O)N1C[C@H](OCc2ccc3ccccc3c2)C[C@@H]1C(=O)NCCN=C(N)N")
559
>>> numericresult("Cc1ccc(N2CCN(C(=O)[C@@H]3CN(C4CCCCC4)C[C@H]3c3ccc(Cl)cc3)CC2)c([C@@H](N)C(C)C)c1")
6.6

Data request: State Ki on Melanocortin receptor 4 (Homo sapiens, UniProt P32245). Entry: `CC(=O)N[C@@H](CCC(N)=O)C(=O)N[C@H](Cc1ccccc1)C(=O)N1C[C@H](OCc2ccc3ccccc3c2)C[C@@H]1CCCN=C(N)N`
Sequence (P32245 whole entry): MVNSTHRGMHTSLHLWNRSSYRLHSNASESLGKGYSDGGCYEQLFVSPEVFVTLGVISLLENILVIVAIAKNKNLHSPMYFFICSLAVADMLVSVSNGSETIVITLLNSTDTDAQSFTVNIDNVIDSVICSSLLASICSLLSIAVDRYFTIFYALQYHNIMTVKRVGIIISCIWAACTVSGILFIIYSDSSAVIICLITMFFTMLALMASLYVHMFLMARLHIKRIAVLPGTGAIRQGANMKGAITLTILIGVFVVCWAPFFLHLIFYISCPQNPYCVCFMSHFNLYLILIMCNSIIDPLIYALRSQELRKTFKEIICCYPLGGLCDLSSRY
Data returned: 18

Data request: State Ki on Melanocortin receptor 4 (Homo sapiens, UniProt P32245). Entry: `CCN1CCC(N2C[C@@H](C(=O)N3CCN(c4ccc(C)cc4[C@@H](N)C(C)C)CC3)[C@H](c3ccc(Cl)cc3)C2)CC1`
Data returned: 18

Data request: State Ki on Melanocortin receptor 4 (Homo sapiens, UniProt P32245). Entry: `Cc1ccc(N2CCN(C(=O)[C@H]3[C@@H](c4ccc(Cl)cc4)CCN3C)CC2)c([C@@H](N)C(C)C)c1`
Data returned: 160
